System: PBMCs
ASSAY_EXPLANATION: Toxicity to PBMC, XTT
Assay type: cell-based, human

COMPOUND	CC50
Cc1cn([C@H]2C[C@H](N=[N+]=[N-])[C@@H](CO)O2)c(=O)[nH]c1=O [AZT, reference compound]	> 4 µM
